# Test system: KG-1
# ASSAY REMARKS: cell viability (% survival relative to DMSO control, bortezomib = 0%); higher = less cytotoxic
# CONDITION DETAILS: 100 nM; 72 h
So I've got a bunch of compounds here, and I need their cell viability values.
One number for each entry, in %.

Please review the following examples before continuing.
COMPOUND | cell viability, %
CCOC(=O)[C@@]1(CCCCCCOc2ccc(Cl)cc2)CO1 | 112
N[C@](CCCCB(O)O)(CCN1CCCCC1)C(=O)O | 96.6
Nc1ccn([C@@H]2O[C@H](CO)[C@@H](O)[C@@H]2O)c(=O)n1 | 63.5
O=C1Nc2ccccc2/C1=C\NCCc1ccc(O)c(O)c1 | 104
O=C(COc1ccc(C(=O)c2ccccc2)cc1)NC1CCN(Cc2ccccc2)CC1 | 104
CCCc1nn(C)c2c(O)nc(-c3cc(S(=O)(=O)N4CCN(C)CC4)ccc3OCC)nc12 | 95.7
CC(Cc1ccc(O)c(O)c1)C(C)Cc1ccc(O)c(O)c1 (centres undefined) | 108
C#Cc1cnc(O)nc1O | 107
Sc1ncnc2nc[nH]c12 | 93.4
Cc1ccc(S(=O)(=O)NC2c3ccccc3Oc3ccccc32)cc1 | 102

List the reported cell viability of each compound below.
1. CCOC(=O)N1c2ccc(C(F)(F)F)cc2[C@@H](N(Cc2cc(C(F)(F)F)cc(C(F)(F)F)c2)C(=O)OC)C[C@H]1CC
2. O=c1c2ccccc2[se]n1-c1ccccc1
3. O=C(O)c1nn(Cc2ccc(Cl)cc2Cl)c2ccccc12
4. O=C(O)CC[C@H](NC(=O)c1ccc([N+](=O)[O-])cc1)C(=O)O [(S)-2-(4-Nitrobenzamido)pentanedioic acid]
5. O=C(O)C(S)=Cc1c[nH]c2ccc(F)cc12
6. C=CCc1ccc2c(c1O)C(=O)c1ccccc1C2=O

107
105
103
97.4
106
107

List the reported cell viability of each compound below.
1. Clc1ccc(COC(Cn2ccnc2)c2ccc(Cl)cc2Cl)cc1 (centres undefined)
2. C[C@H]1O[C@@H](O[C@H]2[C@@H](O)C[C@H](O[C@H]3[C@@H](O)C[C@H](O[C@H]4CC[C@@]5(C)[C@H](CC[C@@H]6[C@@H]5C[C@@H](O)[C@]5(C)[C@@H](C7=CC(=O)OC7)CC[C@]65O)C4)O[C@@H]3C)O[C@@H]2C)C[C@H](O)[C@@H]1O
3. CCOC(=O)[C@H]1O[C@@H]1C(=O)N[C@@H](CC(C)C)C(=O)NCCC(C)C

[101, 27.9, 103]

----------
# Tested on: MOLM-13
# ASSAY REMARKS: cell viability (% survival relative to DMSO control, bortezomib = 0%); higher = less cytotoxic
# CONDITION DETAILS: 10000 nM; 72 h
Could you mark each record TRUE if its cell viability falls strictly under 90%, and FALSE if it equals or exceeds it?

Before answering, review these 5 worked examples.
COMPOUND | ASSIGNED LABEL
Cc1noc2c1-c1ccccc1C(c1ccc(Cl)cc1)=N[C@H]2CC(N)=O | TRUE
Clc1ccc(COC(Cn2ccnc2)c2ccc(Cl)cc2Cl)cc1 (centres undefined) | TRUE
O=C(O)CCc1ccc(NCc2cccc(Oc3ccccc3)c2)cc1 | FALSE
CCOC(=O)[C@@]1(CCCCCCOc2ccc(Cl)cc2)CO1 | FALSE
O=C1Oc2ccccc2C(=O)C1CC1C(=O)Oc2ccccc2C1=O (centres undefined) | FALSE

Now for another entry.
Confirm or reject: cell viability of CC12CCC(O)CC1CCC1C2CCC2(C)C(C3=CC(=O)OC3)CCC12O (centres undefined) lies strictly below 90%
TRUE

Data credit: the supplement of paper PMC8671470
